Molecular target: T1, recombinant human IL-23 (human, UniProt Q9NPF7 20-189; P29460 23-328)
T1 construct: also called hIL-23
T1 sequence 1: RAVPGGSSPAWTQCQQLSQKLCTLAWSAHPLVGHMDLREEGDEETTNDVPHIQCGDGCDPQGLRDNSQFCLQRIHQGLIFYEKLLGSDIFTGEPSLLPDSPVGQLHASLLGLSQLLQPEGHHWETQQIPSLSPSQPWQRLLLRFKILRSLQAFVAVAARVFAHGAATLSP
T1 sequence 2: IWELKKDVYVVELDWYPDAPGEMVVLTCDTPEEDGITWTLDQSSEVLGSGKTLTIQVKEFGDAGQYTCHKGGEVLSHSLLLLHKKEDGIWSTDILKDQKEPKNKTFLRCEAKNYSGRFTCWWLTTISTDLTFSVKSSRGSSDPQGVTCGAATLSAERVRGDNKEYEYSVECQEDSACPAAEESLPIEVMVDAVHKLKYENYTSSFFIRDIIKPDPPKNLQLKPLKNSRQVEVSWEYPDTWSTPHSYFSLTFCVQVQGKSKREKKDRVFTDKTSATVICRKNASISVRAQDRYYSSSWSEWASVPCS
Experiment: SPR (Biacore T100), tissue culture supernatant antibody captured on anti-human IgG, IL-23 analyte
observable: kon (M⁻¹ s⁻¹)
Give bare numbers, in M⁻¹ s⁻¹.

Worked examples follow.
binder	val
A11M4 (antibody, V domains shown) VH: QVQLVQSGAEVKKPGSSVKVSCKASGYTFASYGITWVRQAPGQGLEWMGENYPRSGNTYYNEKFKGRVTITADKSTSTAYMELSSLRSEDTAMYYCARAEFISTVVAPYYYALDYWGQGTLVTVSS VL: DIVMTQSPDSLAVSLGERATINCKASKKVTIFGSTSALHWYQQKPGQPPKLIYNGAKPESGVPDRFSGSGSGTDFTLTISSLQAEDVAVYYCLQNKEVPYTFGGGTKVEIK	2.07e+06
A11M3 (antibody, V domains shown) VH: QVQLVQSGAEVKKPGSSVKVSCKASGYTFASYGITWVRQAPGQGLEWMGENYPRSGNTYYNEKFKGRVTITADKSTSTAYMELSSLRSEDTAMYYCARAEFISTVVAPYYYALDYWGQGTLVTVSS VL: DIVMTQSPDSLAVSLGERATINCKASKKVTIFGSTSALHWYQQKPGQPPKLIYNGAKLESGVPDRFSGSGSGTDFTLTISSLQAEDVAVYYCLQNKEVPYTFGGGTKVEIK	1.43e+06
A12.5M3 (antibody, V domains shown) VH: QVQLVQSGAEVKKPGSSVKVSCKASGYTFASYGITWVRQAPGQGLEWMGENYPRSGNTYYNEKFKGRVTITADKSTSTAYMELSSLRSEDTAVYYCARVEFISTVVAPYYYALDYWGQGTLVTVSS VL: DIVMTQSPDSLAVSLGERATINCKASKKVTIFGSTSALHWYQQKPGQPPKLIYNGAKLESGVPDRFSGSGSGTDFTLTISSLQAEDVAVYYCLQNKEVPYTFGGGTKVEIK	2.7e+06

Let us move to another entry and its kon.
Query :: Record request: kon value, item A12M4 (antibody, V domains shown) VH: QVQLVQSGAEVKKPGSSVKVSCKASGYTFASYGITWVRQAPGQGLEWMGENYPRSGNTYYNEKFKGRVTITADKSTSTAYMELSSLRSEDTAMYYCARVEFISTVVAPYYYALDYWGQGTLVTVSS VL: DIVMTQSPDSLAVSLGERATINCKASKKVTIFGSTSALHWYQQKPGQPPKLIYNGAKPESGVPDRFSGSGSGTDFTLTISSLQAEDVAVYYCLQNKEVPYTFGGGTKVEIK
Result :: 2.94e+06
